# method: NCI Yeast Anticancer Drug Screen. Data for the sgs1 mgt1 strain (AID 161);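 also: 0% = growth of cultures given vehicle only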
# study.conditions: S. cerevisiae sgs1 mgt1 strain, at 50.0 µM, active compounds read high
# Method: Growth inhibition of yeast strains with defined genetic alterations is measured as a screen for potential anti-cancer activity. Selected strains with alterations in DNA damage repair or cell cycle control were exposed to compounds and growth inhibition was measured relative to vehicle treated controls. The strain used in this assay is sgs1 mgt1
Compounds without any hit were thinned out: in the full panel of roughly 79,000, 15% have a hit.
endpoint: growth inhibition (%)
Write the answer as a number in %, unit excluded.

Known results for compounds:
O=C(OCC1OC=C(OC(=O)c2ccccc2)C1OC(=O)c1ccccc1)c1ccccc1 (centres undefined)	32.3
O=C(O)CCCCCCCCC(=O)c1cc(O)ccc1O	35.7
COc1ccc(C(=N)c2ccccc2C)cc1	6.05
Nc1nc(-c2ccccc2)c(N=Nc2cc(Cl)ccc2Cl)s1	-2.3
CC(=O)OCC1COC(C)(c2ccccc2)O1 (centres undefined)	-6.65

Query: growth inhibition; subject: "CNc1ccccc1C(=O)N/N=C/c1cccc([N+](=O)[O-])c1" -39

Field request: growth inhibition | item: "O=C(Nc1nncs1)c1ccncc1" -13.2

What value of growth inhibition has been reported for the following compound? "COc1cccc(NC(=S)NCc2cccnc2)c1" 9.1

Please give the measured growth inhibition for this compound: "Cc1ccc(N=Nc2c(O)n(C)c(=O)n(C)c2=O)cc1C" -17.2

----------
# method: NCI Yeast Anticancer Drug Screen. Data for the bub3 strain (AID 167)
# study.conditions: S. cerevisiae bub3 mutant strain, at 50.0 µM
Compounds without any hit were thinned out: in the full panel of roughly 79,000, 15% have a hit. Active and inactive are the calls of the source. Rule as the data show it: active = growth inhibition above about 70%; inactive = the rest.
API: response.call in label 1 (active), label 0 (inactive)

Identify the outcome logged in this assay for the compound shown: "Cc1ccc([N+](=O)[O-])cc1NC(=O)Cc1ccccc1" label 0

Tell me the recorded outcome of this test for CC(=O)OC1CC(c2ccccc2)=NO1 (stereo not drawn) . label 0

How was "C=Nc1ccc([N+](=O)[O-])cc1" classified in this test? label 0

----------
The compounds listed here are annotated with their growth inhibition.
# method: NCI Yeast Anticancer Drug Screen. Data for the sgs1 mgt1 strain (AID 161);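 also: 0% = growth of cultures given vehicle only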
# study.conditions: S. cerevisiae sgs1 mgt1 strain, at 50.0 µM, active compounds read high
The panel holds about 79,000 compounds, 15% with a hit somewhere; the sample as a whole holds those more often.
Lab book: enter the figure in %, no units written.

O=C(Nc1cccc([N+](=O)[O-])c1)c1ccc(Cl)cc1	8
O=C(Nc1ccc([N+](=O)[O-])cc1)OCc1ccccc1	-9.35
O=C(N/C(=C\c1ccccc1Cl)c1nc2ccccc2[nH]1)c1ccccc1	-23
OC1CCC(C2CCCCC2)CC1 (stereo unspecified)	-2.65
Fc1cccc2c1Cc1ccccc1-2	-21.3
COc1cc(CC(=O)O)c(Br)cc1C	4.15

For the compound shown here, "O=C(O)C(=Cc1ccc([N+](=O)[O-])cc1)C(=O)O" , give the reported growth inhibition. 5.95

Could you share which growth inhibition value was measured for "CN(c1ccccc1Cl)S(=O)(=O)c1ccccc1[N+](=O)[O-]" ? 31.2

Give the measured growth inhibition of COC(=O)C(CC(=O)Nc1ccc(Cl)c(Cl)c1)C(=O)C(=O)NC1C2CC3CC(C2)CC1C3 (stereo unspecified) . -14.1

// returns reported growth inhibition for input "COc1cc(/C=C/C(=O)N[C@@H]2C(=O)N3[C@@H]2SC(C)(C)[C@@H]3C(=O)O)cc(OC)c1OC" -34.8

Can you share its growth inhibition? I mean this compound: "Cc1ccc(P(=O)(O)O)c([N+](=O)[O-])c1" -3.65
